Numbers sourced from ChEMBL document CHEMBL1240331.

# System: Arabidopsis thaliana
# ASSAY COMMENT: Growth inhibition of Arabidopsis thaliana ecotype Pog-0 assessed as inhibition of germination
# Type: functional, organism-based
MEASUREMENT NAME: IC50 (nM)
Report as a plain number; the unit nM is understood.

Given the compound `COc1ccc2occ(C(=O)c3ccccc3Cl)c(=O)c2c1` and test system Arabidopsis thaliana, the measured IC50 is 3000

----------
# Tested on: Arabidopsis thaliana
# ASSAY COMMENT: Growth inhibition of Arabidopsis thaliana ecotype Rld-2 assessed as decrease in hypocotyl length
# Type: functional, organism-based
MEASUREMENT NAME: IC50 (µM)
API: value field is a number in µM; no unit string.

So, CCOC(=O)N1CCN(c2cc(C)c3ccc(Cl)cc3n2)CC1 [POLARAZINE] ? Its IC50 was 13
